The origin of these recorded values is paper PMC4069242.

Field: pIC50. Provide a value for each of the sequences that follow.
Molecular target: DR04:01 protein (Homo sapiens, UniProt P01903+P01911, A100K/A169T/F76Y/I96L/K127E/L162R/M171V/N62H/P40V/Q125Y/R42H/S133A/S149N/S66Y/V115G/V209L/W38E)
Assay: Peptide binding assay
Where no end group is shown, it is not given here.
The value called pIC50 is obtained by taking minus log10 of the concentration in mol/L.

Prompt: Supply measured pIC50 of DSYKFIPTLVAAV [Lol p 5a 199-218] in your reply.
Response: 6.39

Prompt: Supply measured pIC50 of AAFRTAATAADAA [Hor v 5a 167-186] in your reply.
Response: 6.01

Prompt: Supply measured pIC50 of ESYKFIPTLEAAV [Dac g 5a 199-218] in your reply.
Response: 7.13

Prompt: Supply measured pIC50 of SEFEDVIPEGWKADTSYSAK [Lol p 1 221-240] in your reply.
Response: 5.53

Prompt: Supply measured pIC50 of ETYKFIPSLEAAV [Pha a 5a 199-218] in your reply.
Response: 7.29

Prompt: Supply measured pIC50 of ESYKFIPALEAAV [Phl p 5a 199-218] in your reply.
Response: 6.01

Prompt: Supply measured pIC50 of AAFRIAATAANAA [Holl 5a 167-186] in your reply.
Response: 6.94

Prompt: Supply measured pIC50 of EAYKFIPSLETAV [Holl 5a 199-218] in your reply.
Response: 6.98

Prompt: Supply measured pIC50 of AAYRTAATAANAA [Lol p 5a 167-186] in your reply.
Response: 6.27

Prompt: Supply measured pIC50 of EEPIAPYHFDLSGHAFGSMA [Lol p 1 97-116] in your reply.
Response: 6.36

Prompt: Supply measured pIC50 of AAYKIAATAANAA [Dac g 5a 167-186] in your reply.
Response: 7.30

Prompt: Supply measured pIC50 of EEPIAPYHFDLSGHAFGAMA [Phl p 1 97-116] in your reply.
Response: 6.56

Prompt: Supply measured pIC50 of SEVEDVIPEGWKADTSYEAK [Dac g 1 221-240] in your reply.
Response: 6.75

Prompt: Supply measured pIC50 of ESYKFIPALEAAV [Hor v 5a 199-218] in your reply.
Response: 6.00
